Assay: OD615 S. cerevisiae growth inhibition, permissive medium, pilot counter-assay, permissive growth control for S. cerevisiae lifespan shortening project (AID 705)
Details: OD615, 24 h, at 10 µM, active compounds read high
Exercise: state measured growth inhibition for each of the compounds provided.
Answers are plain numbers, in %.

These recorded examples may help you get a feel for the data.
CCSc1nc2ccccc2n1CC(=O)N1CCOCC1: -4.23
O=C(c1cccc(C(=O)N2CCN(c3ccccc3F)CC2)c1)N1CCN(c2ccccc2F)CC1: -6.5

# map each compound to its growth inhibition
1. Cc1cccc(-c2nnc(-c3ccccc3)o2)c1
2. Cn1c(=O)[nH]c(=O)c2c1nc(CN1CCOCC1)n2Cc1ccc(F)cc1
3. N=c1c2c(n(Cc3ccc(F)cc3)c3c1CCC3)CCC2
4. COc1cc(C(C)=O)ccc1OC(=O)C(C)N1C(=O)c2ccccc2C1=O (stereo unspecified)
5. Nc1nc2n(n1)C(c1ccc(Cl)cc1)CC(c1ccc(F)cc1)N2 (stereo unspecified)

Output:
1. -8.19
2. -6.42
3. -12.2
4. -17.5
5. -3.33
